- Test system: Venturia inaequalis
- Assay method text: In vivo preventive test on Venturia inaequalis (apple scab)
- Condition: 100 ppm of active ingredient, evaluated 10 days after inoculation
Assay metric: Efficacy (%)
# value in %; strip the unit string

>>> numeric_result("Cn1nc(C(F)F)c(C(=O)N2CCCC2Cc2ccc(Cl)cc2)c1F (racemic) [Example 65]")
100

--- query ---
Fetch value of Efficacy on Venturia inaequalis for Cc1ccc(CC2CCCN2C(=O)c2c(C(F)F)nn(C)c2F)cc1 (stereo not drawn) [Example 56] . 98

* * *

- Assay method text: logP by HPLC on reversed-phase column (EEC Directive 79/831 Annex V.A8)
- Format: physicochemical
- Condition: HPLC on reversed-phase column (C 18), 40° C., 0.1% aqueous formic acid and acetonitrile, linear gradient 10% to 90% acetonitrile
Assay metric: logP

Past entries and their recorded results:
>>> result("Cn1nc(C(F)F)c(C(=O)N2CCCC2c2ccc(-c3ccccc3)cc2)c1Cl (stereo not shown) [Example 30]")
3.65
>>> result("Cn1nc(C(F)F)c(C(=O)N2CCCC2Cc2ccccc2Cl)c1F (stereo not shown) [Example 60]")
3.06
>>> result("Cn1nc(C(F)F)c(C(=O)N2CCCC2Cc2ccc(C(C)(C)C)cc2)c1F (racemic) [Example 68]")
4.24

--- query ---
Please look at this molecule and report its logP: Cn1nc(C(F)F)c(C(=O)N2CCCC2c2ccccn2)c1F (stereo not shown) [Example 43] 0.92
